Where do the numbers come from? From ChEMBL document CHEMBL1153955.

test system: Sindbis virus; test: Antiviral activity against Sindbis virus in african green monkey Vero cells assessed as protection against virus-induced cytopathicity; type: functional, organism-based
endpoint_name: EC50

Some compounds with recorded EC50:
* Cc1cc(C)cc(S(=O)(=O)c2c(C(=O)NC(C)CC(N)=O)[nH]c3ccc([N+](=O)[O-])cc23)c1 (configuration not stated) | > 20 µM
* Cc1cc(C)cc(S(=O)(=O)c2c(C(=O)NCCS(N)(=O)=O)[nH]c3ccc(Cl)cc23)c1 | 20 µM
* Cc1cc(C)cc(S(=O)(=O)c2c(C(=O)NCC(N)=O)[nH]c3ccc(Cl)c(F)c23)c1 | > 20 µM
* Cc1cc(C)cc(S(=O)(=O)c2c(C(=O)NC(C)C(N)=O)[nH]c3ccc(Cl)cc23)c1 (configuration not stated) | > 20 µM
* Cc1cc(C)cc(S(=O)(=O)c2c(C(N)=O)[nH]c3ccc(Cl)cc23)c1 | > 100 µM
* Cc1cc(C)cc(S(=O)(=O)c2c(C(=O)NCCC(N)=O)[nH]c3ccc(Br)cc23)c1 | > 20 µM

Please find the next compound below.
Q: Bench note: what EC50 did Cc1cc(C)cc(S(=O)(=O)c2c(C(=O)NC(C)CC(N)=O)[nH]c3ccc(Br)cc23)c1 (configuration not stated) show?
Ans: > 20 µM
